Here, each record is paired with measured % Initial data.
- assay.procedure: Accelerated stability study of coated 0.625 mg conjugated estrogens tablets (active compounds and degradation products per USP, LOD)
- Type: physicochemical
- condition.parameters: sugar-coated tablets, Lot EXPWS 1246; 50c, 75% RH/2 wks
- From the text: Stability was monitored under different storage conditions.
readout.name: % Initial (%)

• C[C@]12CCc3c(ccc4cc(O)ccc34)[C@@H]1CC[C@H]2O [17a-dihydroequilenin] = 106.8
• C[C@]12CCC3=C(CCc4cc(O)ccc43)[C@@H]1CCC2=O [d8,9 dehydroesterone] = 104.0
• C[C@]12CC[C@@H]3c4ccc(O)cc4CC[C@H]3[C@@H]1CC[C@@H]2O [17b-estradiol] = 98.3
• C[C@]12CC[C@@H]3c4ccc(O)cc4CC[C@H]3[C@@H]1CC[C@H]2O [17a-estradiol] = 100.0
• C[C@]12CC[C@H]3C(=CCc4cc(O)ccc43)[C@@H]1CC[C@H]2O [17a-dihydroequilin] = 103.6
• C[C@]12CCc3c(ccc4cc(O)ccc34)C1CCC2O (stereo partly drawn) [17b-dihydroequilenin] = 112.5
• C[C@]12CCc3c(ccc4cc(O)ccc34)[C@@H]1CCC2=O = 107.7
• C[C@]12CC[C@H]3C(=CCc4cc(O)ccc43)[C@@H]1CC[C@@H]2O [17b-dihydroequilin] = 100.0
• C[C@]12CC[C@H]3C(=CCc4cc(O)ccc43)[C@@H]1CCC2=O = 102.6

====

Here, each record is paired with measured % Initial data.
- assay.procedure: Accelerated stability study of coated 0.625 mg conjugated estrogens tablets (active compounds and degradation products per USP, LOD)
- Assay type: physicochemical
- condition.parameters: sugar-coated tablets, Lot EXPWS 1246; 40c, 75% RH/2 mnth
readout.name: % Initial (%)

• C[C@]12CC[C@H]3C(=CCc4cc(O)ccc43)[C@@H]1CC[C@H]2O [17a-dihydroequilin] = 103.6
• C[C@]12CC[C@@H]3c4ccc(O)cc4CC[C@H]3[C@@H]1CC[C@H]2O [17a-estradiol] = 102.6
• C[C@]12CC[C@H]3C(=CCc4cc(O)ccc43)[C@@H]1CCC2=O = 101.3
• C[C@]12CC[C@@H]3c4ccc(O)cc4CC[C@H]3[C@@H]1CC[C@@H]2O [17b-estradiol] = 103.3

====

- assay.procedure: Accelerated stability study of coated 0.625 mg conjugated estrogens tablets (active compounds and degradation products per USP, LOD)
- Type: physicochemical
- condition.parameters: acrylic-coated tablets, Lot EXPWS 1251; 40c, 75% RH/2m
readout.name: % Found

* C[C@]12CC[C@H]3C(=CCc4cc(O)ccc43)[C@@H]1CCC2=O [Equilin] | 26.5%
* C[C@]12CCc3c(ccc4cc(O)ccc34)[C@@H]1CCC2=O [Equilenin] | 2.6%
* C[C@]12CCc3c(ccc4cc(O)ccc34)C1CCC2O (stereo partly drawn) [17b-dihydroequilenin] | 0.86%
* C[C@]12CC[C@@H]3c4ccc(O)cc4CC[C@H]3[C@@H]1CC[C@H]2O [17a-estradiol] | 4.7%
* C[C@]12CCC3=C(CCc4cc(O)ccc43)[C@@H]1CCC2=O [d8,9 dehydroesterone] | 4.02%
* C[C@]12CCc3c(ccc4cc(O)ccc34)[C@@H]1CC[C@H]2O [17a-dihydroequilenin] | 2.34%
* C[C@]12CC[C@H]3C(=CCc4cc(O)ccc43)[C@@H]1CC[C@@H]2O [17b-dihydroequilin] | 2.4%
* C[C@]12CC[C@@H]3c4ccc(O)cc4CC[C@H]3[C@@H]1CC[C@@H]2O [17b-estradiol] | 0.96%
* C[C@]12CC[C@H]3C(=CCc4cc(O)ccc43)[C@@H]1CC[C@H]2O [17a-dihydroequilin] | 17.6%

====

- assay.procedure: Accelerated stability study of coated 0.625 mg conjugated estrogens tablets (active compounds and degradation products per USP, LOD)
- Type: physicochemical
- condition.parameters: sugar-coated 0.625 mg tablets, Lot EXPWS 1246; Initial
Here, each record is paired with measured % Found data.
readout.name: % Found (%)

• C[C@]12CCC3=C(CCc4cc(O)ccc43)[C@@H]1CCC2=O [d8,9 dehydroesterone] = 4.72
• C[C@]12CC[C@H]3C(=CCc4cc(O)ccc43)[C@@H]1CCC2=O = 22.7
• C[C@]12CC[C@H]3C(=CCc4cc(O)ccc43)[C@@H]1CC[C@@H]2O [17b-dihydroequilin] = 1.3
• C[C@]12CCc3c(ccc4cc(O)ccc34)C1CCC2O (stereo partly drawn) [17b-dihydroequilenin] = 0.56
• C[C@]12CCc3c(ccc4cc(O)ccc34)[C@@H]1CCC2=O = 2.6
• C[C@]12CC[C@@H]3c4ccc(O)cc4CC[C@H]3[C@@H]1CC[C@H]2O [17a-estradiol] = 3.8
• C[C@]12CC[C@@H]3c4ccc(O)cc4CC[C@H]3[C@@H]1CC[C@@H]2O [17b-estradiol] = 0.60
• C[C@]12CC[C@H]3C(=CCc4cc(O)ccc43)[C@@H]1CC[C@H]2O [17a-dihydroequilin] = 14.0
• C[C@]12CCc3c(ccc4cc(O)ccc34)[C@@H]1CC[C@H]2O [17a-dihydroequilenin] = 2.05

====

Here, each record is paired with measured % Initial data.
- assay.procedure: Accelerated stability study of coated 0.625 mg conjugated estrogens tablets (active compounds and degradation products per USP, LOD)
- Type: physicochemical
- condition.parameters: acrylic-coated tablets, Lot EXPWS 1251; 40c, 75% RH/3m
readout.name: % Initial

• C[C@]12CCc3c(ccc4cc(O)ccc34)C1CCC2O (stereo partly drawn) [17b-dihydroequilenin] = 88.3%
• C[C@]12CC[C@H]3C(=CCc4cc(O)ccc43)[C@@H]1CC[C@H]2O [17a-dihydroequilin] = 101.1%
• C[C@]12CCc3c(ccc4cc(O)ccc34)[C@@H]1CCC2=O [Equilenin] = 136.4%
• C[C@]12CC[C@H]3C(=CCc4cc(O)ccc43)[C@@H]1CC[C@@H]2O [17b-dihydroequilin] = 104.3%
• C[C@]12CCc3c(ccc4cc(O)ccc34)[C@@H]1CC[C@H]2O [17a-dihydroequilenin] = 170.9%
• C[C@]12CCC3=C(CCc4cc(O)ccc43)[C@@H]1CCC2=O [d8,9 dehydroesterone] = 94.2%
• C[C@]12CC[C@H]3C(=CCc4cc(O)ccc43)[C@@H]1CCC2=O [Equilin] = 96.7%
• C[C@]12CC[C@@H]3c4ccc(O)cc4CC[C@H]3[C@@H]1CC[C@@H]2O [17b-estradiol] = 69.8%
• C[C@]12CC[C@@H]3c4ccc(O)cc4CC[C@H]3[C@@H]1CC[C@H]2O [17a-estradiol] = 104.3%

====

- assay.procedure: Accelerated stability study of coated 0.625 mg conjugated estrogens tablets (active compounds and degradation products per USP, LOD)
- Type: physicochemical
- condition.parameters: acrylic-coated tablets, Lot EXPWS 1251; initial % found versus 40c, 75% RH/3m
- Text: Stability was monitored under different storage conditions.
readout.name: Change

• C[C@]12CC[C@H]3C(=CCc4cc(O)ccc43)[C@@H]1CC[C@@H]2O [17b-dihydroequilin] = −0.1
• C[C@]12CC[C@H]3C(=CCc4cc(O)ccc43)[C@@H]1CCC2=O [Equilin] = 0.9
• C[C@]12CCC3=C(CCc4cc(O)ccc43)[C@@H]1CCC2=O [d8,9 dehydroesterone] = 0.24
• C[C@]12CCc3c(ccc4cc(O)ccc34)[C@@H]1CC[C@H]2O [17a-dihydroequilenin] = −1.17
• C[C@]12CCc3c(ccc4cc(O)ccc34)[C@@H]1CCC2=O [Equilenin] = −0.8

====

Here, each record is paired with measured % Found data.
- assay.procedure: Accelerated stability study of coated 0.625 mg conjugated estrogens tablets (active compounds and degradation products per USP, LOD)
- Type: physicochemical
- condition.parameters: acrylic-coated 0.625 mg tablets, Lot EXPWS 1251, 10% Eudragit/RS:RL (2:1); Initial
readout.name: % Found (%)

* C[C@]12CCC3=C(CCc4cc(O)ccc43)[C@@H]1CCC2=O [d8,9 dehydroesterone] | 4.15
* C[C@]12CC[C@H]3C(=CCc4cc(O)ccc43)[C@@H]1CC[C@H]2O [17a-dihydroequilin] | 17.9
* C[C@]12CCc3c(ccc4cc(O)ccc34)[C@@H]1CC[C@H]2O [17a-dihydroequilenin] | 1.65

====

- assay.procedure: Accelerated stability study of coated 0.625 mg conjugated estrogens tablets (active compounds and degradation products per USP, LOD)
- Assay type: physicochemical
- condition.parameters: sugar-coated tablets, Lot EXPWS 1246; 40c, 75% RH/1 mnth
readout.name: % Initial (%)

- C[C@]12CC[C@H]3C(=CCc4cc(O)ccc43)[C@@H]1CC[C@H]2O [17a-dihydroequilin]: 102.1
- C[C@]12CC[C@H]3C(=CCc4cc(O)ccc43)[C@@H]1CCC2=O: 101.3
- C[C@]12CCC3=C(CCc4cc(O)ccc43)[C@@H]1CCC2=O [d8,9 dehydroesterone]: 99.2
- C[C@]12CC[C@@H]3c4ccc(O)cc4CC[C@H]3[C@@H]1CC[C@H]2O [17a-estradiol]: 102.6
- C[C@]12CCc3c(ccc4cc(O)ccc34)[C@@H]1CC[C@H]2O [17a-dihydroequilenin]: 105.4
- C[C@]12CCc3c(ccc4cc(O)ccc34)C1CCC2O (stereo partly shown) [17b-dihydroequilenin]: 103.6
- C[C@]12CCc3c(ccc4cc(O)ccc34)[C@@H]1CCC2=O: 107.7
